Data credit: patent US20190048074A1

Quick reference for IC50 [M], in the presence of 100 ρM Apelin (at 5 µM Forskolin) among some binders
Target: T1, full-length human APLNR (human, UniProt P35414 1-380)
T1 sequence: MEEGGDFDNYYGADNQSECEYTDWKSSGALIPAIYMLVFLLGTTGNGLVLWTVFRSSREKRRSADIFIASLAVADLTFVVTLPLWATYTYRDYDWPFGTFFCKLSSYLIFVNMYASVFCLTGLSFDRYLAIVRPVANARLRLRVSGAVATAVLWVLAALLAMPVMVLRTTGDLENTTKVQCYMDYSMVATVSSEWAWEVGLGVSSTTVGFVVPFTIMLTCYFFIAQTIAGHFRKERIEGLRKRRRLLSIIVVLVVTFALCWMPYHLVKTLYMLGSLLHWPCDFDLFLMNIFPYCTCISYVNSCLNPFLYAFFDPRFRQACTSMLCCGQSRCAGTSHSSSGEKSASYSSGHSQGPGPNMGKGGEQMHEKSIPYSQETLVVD
Assay: cell-based or functional assay
Measurement Kind: IC50 [M], in the presence of 100 ρM Apelin (at 5 µM Forskolin) (M)

Binder	Unit String	Inequality Symbol	Measurement
H1M9207N (antibody, V domains shown, Human variable domains, mouse IgG1 Fc (H1M prefix)) VH: EVQLVESGGGLAQPGGSLRLSCAASGFTFSNYWMSWVRQAPGKGLEWVANIKQDGSEKYYLESVKGRFTISRDNAKNLLYLQMNSLRAEDTAVFYCARPGLLRFLEPGRRYYSGMNVWGQGTTVTVSS VL: DIQLTQSPSFLSASVGDRVTITCWASQGIRSYLAWYQQKPGKAPKLLIYAASTLQSGVPSRFSGSGSGTEFTLTISSLQPEDFATYYCQQFNSYPWTFGQGTKVEIK	M	=	3e-09
H2aM9228N (antibody, V domains shown, Human variable domains, mouse IgG2a Fc) VH: EVQLVESGGGLVQPGGSLRLSCAASGFTFSNYWMSWVRLAPGKGLEWVANIKQDGSERYYVGSVKGRFTISRGDAKNSLYLQMNSLRAEDTAVYYCARDRFGYSAFDKGVRYYYGMDVWGQGTTVTVSS VL: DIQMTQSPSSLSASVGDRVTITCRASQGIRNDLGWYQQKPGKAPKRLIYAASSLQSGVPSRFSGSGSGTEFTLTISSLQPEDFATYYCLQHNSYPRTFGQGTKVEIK	M	>	1e-07
H2aM9232N (antibody, V domains shown, Human variable domains, mouse IgG2a Fc) VH: QVKLVESGGGVVQPGRSLRLSCAASGFTFSNYVIHWVRQAPGKGLEWVAVIWYDGSNKYYADSVKGRFTISRDNSKNTLYLQMNSLRAEDTAVYYCARDRVVRGVDYYYYYGLDVWGQGTSVTVSS VL: EIVMTQSPATLSVSPGERATLSCRASQSVRSNLAWYQQKPGQAPRLLIYGASSRATGIPARFSGTGSGTEFTLTISSLQSDDFAVYYCQQYNKWPRTFGQGTKVEIK	M	=	4.2e-09
H2aM9227N (antibody, V domains shown, Human variable domains, mouse IgG2a Fc) VH: EVQLVESGGGLVQPGGSLRLSCAASGFTFSSFWMSWVRQVPGKGLEWVANIKQDGSEKYYVDSVKGRFTISRDNAKNSLYLQMNSLRAEDTAVYYCARDRFGYSFYDKGVRYYYGMDVWGQGTTVTVSS VL: DIQMTQSPSSLSVSVGDRVTITCRASQGIRNDLGWYQQKPGKAPKRLIYATSSLQSGVPSRFSGSGSGTEFTLTISGLQPEDFATYYCLQHNSYPRTFGQGTKVEIK	M	=	4.3e-09
H2aM9230N (antibody, V domains shown, Human variable domains, mouse IgG2a Fc) VH: EVQLVESGGGLVQPGGSLRLSCAASGFTFSSFWMSWVRQVPGKGLQWVANIKQDGSEKYYVDSVKGRFTISRDNAKNSLYLQMNSLRAEDTAVYYCARDRFGYSVYDKGVRYYYGMDVWGQGTTVTVSS VL: DIQMTQSPSSLSVSVGDRVTITCRASQGIRNDLGWYQQKPGKAPKRLIYAASSLQSGVPSRFSGSGSGTEFTLTISGLQSEDFATYYCLQHKSYPRTFGQGTKVEIK	M	=	2.4e-09
